- assay_remarks: Half life in Wistar rat at 0.5 mg/kg, iv and 1 mg/kg, po
- Assay type: ADME, organism-based
- conditions_used: in vivo
readout: half-life (h)
Write the value in h as a bare number.

Q: Find the recorded half-life belonging to COc1ccc2ncc(F)c([C@@H](O)[C@H](O)[C@@H]3CC[C@@H](NCc4cc5c(cn4)OCCS5)CO3)c2n1 and report it.
Ans: 3

----------
- Tested on: Streptococcus pneumoniae
- assay_remarks: Antibacterial activity against wild type Streptococcus pneumoniae ATCC 49619 assessed as growth inhibition by broth microdilution method
- Assay type: functional
This section presents compounds with their documented MIC values.
Express your answer in µg/mL, writing the number without its unit.

Below, 2 compounds whose answers are already recorded.
Q: Observed MIC on Streptococcus pneumoniae for COc1ccc2ncc(F)c([C@@H](O)[C@H](O)[C@@H]3CC[C@@H](NCc4ccc5c(n4)NC(=O)CS5)CO3)c2n1 , please.
Ans: 0.06

Q: Also check COc1ccc2nccc([C@@H](O)[C@H](O)[C@@H]3CC[C@@H](NCc4ccc5c(n4)NC(=O)CS5)CO3)c2n1
Ans: 0.06

Now look at this one.
Q: // fetch Streptococcus pneumoniae MIC for COc1ccc2ncc(F)c([C@@H](O)[C@H](O)[C@@H]3CC[C@@H](NCc4cc5c(nn4)OCCS5)CO3)c2n1
Ans: 0.06

----------
- measured_target: DNA gyrase (Staphylococcus aureus, UniProt P0A0K8+P20831)
- assay_remarks: Inhibition of wild type Staphylococcus aureus DNA gyrase subunit 2GyrA/2GyrB assessed as pBR322 supercoiling after 1 hr
readout: IC50

Q: So what's the measured IC50 for this one? COc1ccc2nccc(C(O)C[C@@H]3CC[C@@H](NCc4ccc5c(n4)NC(=O)CS5)CO3)c2n1 (mixture of isomers)
Ans: < 30 nM

Q: Note, next up: COc1ccc2nccc([C@@H](O)[C@H](O)[C@@H]3CC[C@@H](NCc4ccc5c(n4)NC(=O)CS5)CO3)c2n1
Ans: < 30 nM

Q: Again, but for COc1ccc2nccc(CC[C@@H]3CC[C@@H](NCc4cc5c(cn4)OCCO5)CO3)c2n1
Ans: < 30 nM

----------
- Test system: Staphylococcus aureus
- assay_remarks: Antibacterial activity against wild type Staphylococcus aureus ATCC 29213 assessed as growth inhibition by broth microdilution method
- Format: functional
Rule: measured MIC below 0.06 µg/mL gets Criterion met; anything equal to or greater than 0.06 µg/mL gets Criterion not met.

Some entries whose results are on file:
Q: Quick check: does COc1cnc2cccc([C@@H](O)[C@H](O)[C@@H]3CC[C@@H](NCc4ccc5c(n4)NC(=O)CS5)CO3)c2c1 have MIC under 0.06 µg/mL?
Ans: Criterion not met

Q: Queued: COc1ccc2cccc([C@@H](O)[C@H](O)[C@@H]3CC[C@@H](NCc4ccc5c(n4)NC(=O)CS5)CO3)c2n1
Ans: Criterion met

Q: Moving on to the next molecule: COc1ccc2ncc(F)c([C@@H](O)[C@H](O)[C@@H]3CC[C@@H](NCc4cc5c(cn4)OCCS5)CO3)c2n1
Ans: Criterion met

Q: Same question, O=C(O)c1cn(C2CC2)c2cc(N3CCNCC3)c(F)cc2c1=O this time
Ans: Criterion not met

Q: Same question for COc1ccc2nccc(NC(=O)[C@@H]3CC[C@@H](NCc4cc5c(cn4)OCCO5)CO3)c2n1 please.
Ans: Criterion not met

---
Q: Lab log: compare recorded MIC with 0.06 µg/mL; is it strictly lower for COc1cnc2ccc(F)c([C@@H](O)[C@H](O)[C@@H]3CC[C@@H](NCc4cc5c(cn4)OCCO5)CO3)c2n1 ?
Ans: Criterion met

Q: Also check COc1cnc2ccc(F)c([C@@H](O)[C@H](O)[C@@H]3CC[C@@H](NCc4cc5c(nn4)OCCS5)CO3)c2n1
Ans: Criterion met

Q: Okay, and COc1ccc2nccc(OC[C@@H]3CC[C@@H](NCc4cc5c(cn4)OCCO5)CO3)c2n1 ?
Ans: Criterion not met

Q: What would you report for N#Cc1ccc2ccc(=O)n(CCN3CC[C@H](NCc4cc5c(cn4)OCCO5)[C@H](F)C3)c2c1 ?
Ans: Criterion met
